tested on: HCT15 cancer cell line; test: MTT assay for anticancer activity, HCT15 cells; format: cell-based, human; details: HCT15 cells, MTT, 24 h incubation; read-out: IC50 against HCT15
Consider the following molecules; for each one, report its pIC50.
Give bare numbers, as −log10 of the molar value.

MOLECULE	OBSERVED
N.N.[Cl][Pt][Cl] [cisplatin]	4.53

// next entry
Q) Would you mind telling me what pIC50 value was observed for [Cl][Au].[Cl][Au].c1ccc(P(CP(c2ccccc2)c2ccccc2)c2ccccc2)cc1 [[(DPPM)(AuCl)2](A0)] ?
A) 3.83
